Entry source: ChEMBL document CHEMBL1629572

biological target: Neuraminidase (Influenza A virus, UniProt B4URF0); experiment: Inhibition of Influenza A virus (A/California/07/2004(H3N2)) neuraminidase after 30 mins by fluorescence analysis
Sequence (B4URF0 whole entry): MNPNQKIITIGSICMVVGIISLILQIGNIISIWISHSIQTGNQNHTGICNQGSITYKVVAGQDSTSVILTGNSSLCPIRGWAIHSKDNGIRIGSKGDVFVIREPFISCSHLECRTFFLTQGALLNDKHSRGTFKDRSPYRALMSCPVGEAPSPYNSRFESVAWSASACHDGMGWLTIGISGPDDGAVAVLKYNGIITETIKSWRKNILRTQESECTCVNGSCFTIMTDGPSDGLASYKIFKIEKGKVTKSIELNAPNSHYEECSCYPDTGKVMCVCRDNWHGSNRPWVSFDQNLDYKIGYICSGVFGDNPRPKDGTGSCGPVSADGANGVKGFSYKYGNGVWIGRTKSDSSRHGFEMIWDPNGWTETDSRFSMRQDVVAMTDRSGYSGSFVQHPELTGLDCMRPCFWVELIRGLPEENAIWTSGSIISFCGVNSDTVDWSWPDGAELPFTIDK
observation.type: IC50 (nM)
Unit nM implied. Number only.

Asked: I am curious: what IC50 value has been reported for CCCCCCCC(=O)OC[C@@H](O)[C@@H](OC)[C@@H]1OC(C(=O)O)=C[C@H](NC(=N)N)[C@H]1NC(C)=O [LANINAMIVIR OCTANOATE] ?
Given back: 135

====

target: Neuraminidase (Influenza A virus, UniProt B4URF0); test: Inhibition of Influenza A virus (A/Kitakyushu/159/1993(H3N2)) neuraminidase after 30 mins by fluorescence analysis
observation.type: IC50
Give the figure together with its unit, number first.

Asked: I'm curious: which IC50 was measured for CCCCCCCC(=O)OC[C@@H](O)[C@@H](OC)[C@@H]1OC(C(=O)O)=C[C@H](NC(=N)N)[C@H]1NC(C)=O [LANINAMIVIR OCTANOATE] tested on Neuraminidase (Influenza A virus, UniProt B4URF0)?
Given back: 221 nM

====

target: Neuraminidase (Influenza A virus); assay: Inhibition of Influenza A virus (A/Wyoming/03/2003(H3N2)) neuraminidase after 30 mins by fluorescence analysis
observation.type: pIC50
Keep in mind that pIC50 stands for -log10 of concentration in molar terms.

Asked: Entry CCCCCCCC(=O)OC[C@@H](O)[C@@H](OC)[C@@H]1OC(C(=O)O)=C[C@H](NC(=N)N)[C@H]1NC(C)=O [LANINAMIVIR OCTANOATE] : reported pIC50 = ?
Given back: 6.94

====

target: Neuraminidase (Influenza A virus); assay: Inhibition of Influenza A virus (A/New York/55/2004(H3N2)) neuraminidase after 30 mins by fluorescence analysis
observation.type: IC50 (nM)
API: value field is a number in nM; no unit string.

Asked: Which IC50 reading was recorded for the molecule CCCCCCCC(=O)OC[C@@H](O)[C@@H](OC)[C@@H]1OC(C(=O)O)=C[C@H](NC(=N)N)[C@H]1NC(C)=O [LANINAMIVIR OCTANOATE] ?
Given back: 136

====

target: Neuraminidase (Influenza A virus, UniProt B4URF0); assay: Inhibition of Influenza A virus (A/Singapore/1/1957(H2N2)) neuraminidase after 30 mins by fluorescence analysis
observation.type: IC50 (nM)
Hi! Could you send only the number? It should be in nM, unit omitted.

Asked: Find the recorded IC50 belonging to CCCCCCCC(=O)OC[C@@H](O)[C@@H](OC)[C@@H]1OC(C(=O)O)=C[C@H](NC(=N)N)[C@H]1NC(C)=O [LANINAMIVIR OCTANOATE] and report it.
Given back: 128

====

molecular target: Neuraminidase (Influenza A virus, UniProt B4URF0); assay: Inhibition of Influenza A virus (A/Saitama/80/2003(H3N2)) neuraminidase after 30 mins by fluorescence analysis
observation.type: IC50

Asked: Quick check: IC50 on Neuraminidase (Influenza A virus, UniProt B4URF0), item CCCCCCCC(=O)OC[C@@H](O)[C@@H](OC)[C@@H]1OC(C(=O)O)=C[C@H](NC(=N)N)[C@H]1NC(C)=O [LANINAMIVIR OCTANOATE] ?
Given back: 39.2 nM

====

molecular target: Neuraminidase (Influenza A virus); test: Inhibition of Influenza A virus (A/Saitama/07/2006(H3N2)) neuraminidase after 30 mins by fluorescence analysis
observation.type: IC50 (nM)
Write it as a number; the unit nM goes unstated.

Asked: I am curious: what IC50 value has been reported for CCCCCCCC(=O)OC[C@@H](O)[C@@H](OC)[C@@H]1OC(C(=O)O)=C[C@H](NC(=N)N)[C@H]1NC(C)=O [LANINAMIVIR OCTANOATE] ?
Given back: 63.3
